Test system: HOP-62 NSCLC
Assay: NCI-60 one-dose screen, 48 h
Conditions: 10 µM unless noted
This is part of a sample that, as a whole, favours compounds with a hit. Of some 83,000 tested, about 20% had one in any assay. Active and inactive are the calls of the source. The calls were made as follows: active = growth percent below 10; inactive = the rest.
Log the outcome using a class from active, inactive

Problem: Kindly provide the recorded test outcome for the following molecule: "CS(=O)(=O)Nc1cc(-c2ccc3ncc(C#N)c(NCc4ccccc4)c3c2)cnc1Cl"
Result: active

Problem: Tell me the assay call for "COc1ccc2c(c1)c(CC(=O)[Se]CC(=O)O)c(C)n2C(=O)c1ccc(Cl)cc1" please.
Result: inactive

Problem: Could you please tell me the result logged for "O=c1[nH]c2ccccc2cc1CSc1ccccc1Nc1nccc(-c2ccc(Cl)cc2)n1" in this assay?
Result: inactive

Problem: I would be grateful if you could indicate the recorded call for C[C@@H]1C[C@H]2C(=O)O[C@@H](C)C(NC(=O)[C@H](Cc3cc(F)cc(F)c3)NC(=O)Nc3ccc(C4CC4)cc3F)C(=O)N3CCC[C@H]3C(=O)N3CCCC[C@H]3C(=O)N[C@@H](CO)C(=O)N2C1 (some centres undefined) .
Result: inactive

Origin of measurements: PubChem BioAssay (NCI)
